Test: AUC (0 to t) in BALB/c mouse at 1 mg/kg, iv
Assay type: ADME, organism-based
Set-up: dose 1 mg/kg, route intravenous
Settings: plasma
OUTCOME_MEASURE: AUC(0-t)

Input line: Assign AUC(0-t) to the following record: `CN(CCc1c[nH]c2ccccc12)C(=O)c1ccc(-c2ccccc2)cc1`
Output line: 187 ng·h/mL

====

Assay: AUC (0 to t) in BALB/c mouse at 10 mg/kg, po
Format: ADME, organism-based
Parameters: dose 10 mg/kg, route oral
Conditions: plasma
OUTCOME_MEASURE: AUC(0-t) (ng·h/mL)
Kindly answer with a numeric value in ng·h/mL, unit omitted.

Input line: Assign AUC(0-t) to the following record: `CN(CCc1c[nH]c2ccccc12)C(=O)c1ccc(-c2ccccc2)cc1`
Output line: 172

====

Test: Solubility in water
Format: physicochemical
OUTCOME_MEASURE: solubility (µg/mL)
Kindly answer with a numeric value in µg/mL, unit omitted.

Input line: Assign solubility to the following record: `CN(CCc1c[nH]c2ccccc12)C(=O)c1ccc(-c2ccccc2)cc1`
Output line: 80

====

Assay: Cmax in BALB/c mouse at 10 mg/kg, po
Format: ADME, organism-based
Set-up: dose 10 mg/kg, route oral
Conditions: in vivo
OUTCOME_MEASURE: Cmax (µg/mL)
Kindly answer with a numeric value in µg/mL, unit omitted.

Input line: Assign Cmax to the following record: `CN(CCc1c[nH]c2ccccc12)C(=O)c1ccc(-c2ccccc2)cc1`
Output line: 0.19

====

Biological target: Cyclin-dependent kinase 2/cyclin E1 (Homo sapiens)
Test: Binding affinity to human CDK2/cyclinE
pIC50: −log10 of the molar value.
OUTCOME_MEASURE: pIC50

Input line: Assign pIC50 to the following record: O=C1c2ccccc2-[n+]2ccc3c([nH]c4ccccc43)c21 [FASCAPLYSIN CHLORIDE]
Output line: < 3.60

====

Target: CDK9/cyclin T1 (Homo sapiens)
Sequence (O60563 whole entry): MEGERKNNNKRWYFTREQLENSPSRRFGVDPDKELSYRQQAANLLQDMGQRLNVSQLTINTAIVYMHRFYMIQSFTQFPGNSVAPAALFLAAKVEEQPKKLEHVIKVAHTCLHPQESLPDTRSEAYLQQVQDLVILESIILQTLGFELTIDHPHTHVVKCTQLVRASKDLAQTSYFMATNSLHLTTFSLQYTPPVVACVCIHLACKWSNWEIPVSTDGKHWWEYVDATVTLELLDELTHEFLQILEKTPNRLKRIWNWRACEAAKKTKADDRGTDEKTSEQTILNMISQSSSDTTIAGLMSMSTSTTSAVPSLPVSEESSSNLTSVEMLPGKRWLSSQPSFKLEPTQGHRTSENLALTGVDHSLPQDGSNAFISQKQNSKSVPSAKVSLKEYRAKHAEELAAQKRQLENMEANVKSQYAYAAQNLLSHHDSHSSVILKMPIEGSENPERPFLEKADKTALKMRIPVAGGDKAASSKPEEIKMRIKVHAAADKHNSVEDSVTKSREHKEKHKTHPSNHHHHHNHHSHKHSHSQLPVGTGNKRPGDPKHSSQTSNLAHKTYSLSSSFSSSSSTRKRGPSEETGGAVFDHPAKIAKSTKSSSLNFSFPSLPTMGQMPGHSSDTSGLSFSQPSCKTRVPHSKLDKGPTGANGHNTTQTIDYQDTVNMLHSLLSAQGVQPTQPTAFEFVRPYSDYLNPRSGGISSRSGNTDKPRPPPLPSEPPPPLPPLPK
Sequence (P50750 whole entry): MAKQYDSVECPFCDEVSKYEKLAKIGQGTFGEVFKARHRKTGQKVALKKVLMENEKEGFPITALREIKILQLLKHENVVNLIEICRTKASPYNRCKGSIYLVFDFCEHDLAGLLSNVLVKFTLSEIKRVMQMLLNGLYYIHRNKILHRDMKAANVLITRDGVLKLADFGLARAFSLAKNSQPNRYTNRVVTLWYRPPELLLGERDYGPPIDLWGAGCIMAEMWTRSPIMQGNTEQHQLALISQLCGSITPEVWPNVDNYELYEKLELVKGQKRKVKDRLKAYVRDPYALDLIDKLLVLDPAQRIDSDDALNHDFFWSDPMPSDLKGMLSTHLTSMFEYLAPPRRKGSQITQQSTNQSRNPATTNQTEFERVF
Assay: Binding affinity to human CDK9/cyclinT1
# Lookup of reported IC50 keyed by entry

Input line: Assign IC50 to the following record: `CN(CCc1c[nH]c2ccccc12)C(=O)c1ccc(-c2ccccc2)cc1`
Output line: > 1000 µM

Input line: Assign IC50 to the following record: `CN(CCc1c[nH]c2ccccc12)C(=O)c1ccc(Cl)cc1`
Output line: > 1000 µM

Input line: Assign IC50 to the following record: O=C1c2ccccc2-[n+]2ccc3c([nH]c4ccccc43)c21 [FASCAPLYSIN CHLORIDE]
Output line: > 250 µM

Input line: Assign IC50 to the following record: `CN(CCc1c[nH]c2ccccc12)C(=O)c1ccc(C(C)(C)C)cc1`
Output line: > 1000 µM

====

Assay: Displacement of ethidium bromide from closed circular plasmid DNA (unknown origin) by fluorescence quenching assay
OUTCOME_MEASURE: IC50 (µM)
Kindly answer with a numeric value in µM, unit omitted.

Input line: Assign IC50 to the following record: O=C1c2ccccc2-[n+]2ccc3c([nH]c4ccccc43)c21 [FASCAPLYSIN CHLORIDE]
Output line: 5

====

Assay: Efflux ratio of permeability across basolateral to apical side over apical to basolateral side in human Caco2 cells
Assay type: ADME, cell-based
Settings: Caco-2
OUTCOME_MEASURE: efflux ratio

Input line: Assign efflux ratio to the following record: `CN(CCc1c[nH]c2ccccc12)C(=O)c1ccc(-c2ccccc2)cc1`
Output line: 1.1
